Test: Human Liver Microsomal Stability (Test C)
Assay type: in vitro ADME
Conditions: human, liver microsomes
value kind: microsomal CLint (µL/min/mg)

> print(dat)
                                   compound        value.kind  recorded.measurement
1  COc1cc(F)c(O[C@H]2CC[C@@H](C(=O)O)CC2)cc1C(=O)N[C@@H]1[C@H]2CC[C@H](C2)[C@@H]1C(=O)NC12CC(C1)C2 [Example 178]  microsomal CLint                   8.6
2  COc1cc(F)c(O[C@H]2CC[C@@H](C(=O)O)CC2)cc1C(=O)N[C@@H]1[C@H]2CC[C@H](C2)[C@@H]1C(=O)Nc1cccc(C(F)(F)F)c1C [Example 24]  microsomal CLint                    29
3  COc1cc(C#N)c(O[C@H]2CC[C@@](C)(C(=O)O)CC2)cc1C(=O)N[C@@H]1[C@H]2CC[C@H](C2)[C@@H]1C(=O)NCc1nccc(C(F)F)n1 [Example 114]  microsomal CLint                    17
